Source of measurements: PubChem BioAssay (NCI)

Test system: CAKI-1 renal
protocol_description: NCI tumour cell line growth inhibition, 48 h
measurement_kind: TGI

Below: 8 compounds and their reported TGI.
O=C1[C@@H]2C(c3ccc(Br)cc3)=NO[C@@H]2C(=O)N1c1ccc(Cc2ccc(N3C(=O)[C@H]4C(c5ccc(Br)cc5)=NO[C@H]4C3=O)cc2)cc1	> 40 µM
CC(C)C1CNC(=O)C2(C=NC(C(C)C)CNC(=O)C3(C=N1)CCCO3)CCCO2 (stereo not given)	> 10 µM
COC1C2C[C@@H](O)CCC2C(C(=O)OCCl)C[C@H]1O (stereo not given in full)	> 100 µM
O=C1CN(c2ccccc2)Cc2nc(Cl)ccc2N1	> 100 µM
COc1cc[c]([Sn]([c]2ccc(OC)cc2)([c]2ccc(OC)cc2)[c]2ccc(OC)cc2)cc1	69.2 µM
CSc1ccc(C2=C(c3ccccc3)C(=O)OC2)cc1	10.1 µM
Cc1ccccc1N=Nc1c(O)ccc2ccccc12	> 100 µM
Brc1ccc(C2C3CSc4ccccc4C3=NN2c2ccccc2)cc1 (stereo not given)	> 100 µM

[ask] May I ask what TGI has been recorded for "COc1ccc(-n2c(CCC(=O)O)nc3c2C(=O)c2ccccc2C3=O)cc1" ?
[reply] > 100 µM

[ask] Using the record for CC(=O)C1CCN(c2ccccc2)C1 (stereo not given) , report its TGI.
[reply] > 100 µM
